A compilation of published IC50 results with JNK3 (Homo sapiens, UniProt P53779).

Example results:
• CS(=O)(=O)Nc1ccc(F)c(C(=O)c2c[nH]c3ncc(-c4ccccc4)cc23)c1 = ≤ 10 µM
• NC(=O)c1cccc(-c2cnc3[nH]cc(Cc4ccccc4O)c3c2)c1 = ≤ 10 µM
• O=C(Cn1c(=O)ccc2ccc(C(F)(F)F)cc21)Nc1scc(Br)c1-c1ncn[nH]1 = < 0.1 µM

## Input Please give measured IC50 of the following entry: c1sc(N2CCCC2)nc1-c1c[nH]c2ncc([C@H]3CC[C@H](N4CCCOCC4)CC3)cc12
## Output 1.29 µM

## Input Please give measured IC50 of the following entry: O=C(CN1C(=O)CCc2ccc(Cl)cc21)Nc1scc(Br)c1-c1ncn[nH]1
## Output < 0.1 µM

---

A compilation of published pIC50 results with JNK3 (Homo sapiens).
pIC50: −log10 of the molar value.

* CCCCNC(=O)Nc1cccc(C(=O)c2c[nH]c3ncc(-c4cccnc4)cc23)c1C | ≥ 5.00
* O=C(NC1COC1)c1cc(-n2ncc3nc(Nc4ccccc4Cl)ccc32)cs1 | > 6.70
* CN1CCCN([C@H]2CC[C@H](c3cnc4[nH]cc(-c5cnn(C)c5)c4c3)CC2)CC1 | 7.16
* O=C(Cn1c(=O)ccc2cc(C(F)(F)F)ccc21)Nc1scc(Cl)c1-c1ncn(CCCN2CCCC2)n1 | > 7.00
* Cc1c(O)cccc1C(=O)c1c[nH]c2ncc(-c3ccccc3)cc12 | ≥ 5.00
* Nc1cccc(-c2cnc3[nH]cc(C(=O)c4cc(O)ccc4F)c3c2)c1 | ≥ 5.00
* N#CCc1cnc(-c2ccc3ccccc3c2)n1-c1ccnc(NC2CCCN(C(=O)C3CC3)C2)n1 (stereo not shown) | > 7.52
* CCOc1ccc(Nc2cnc3[nH]ccc3c2)cc1 | ≥ 5.00
* Oc1ccc(F)c(Cc2c[nH]c3ncc(Br)cc23)c1F | ≥ 5.00

## Input Please give measured pIC50 of the following entry: CC(=O)c1cccc(Nc2cnc3[nH]ccc3c2)c1
## Output ≥ 5.00

---

A compilation of published IC50 results with JNK3 (Homo sapiens, UniProt P53779).

Example results:
- CN1CCN([C@H]2CC[C@H](c3cnc4[nH]cc(-c5csc(C6CCCN6C)n5)c4c3)CC2)CC1 (stereo partly drawn): 1.74 µM
- Cn1cc(-c2c[nH]c3ncc([C@H]4CC[C@@H](C(=O)O)CC4)cc23)cn1: > 0.5 µM
- c1cncc(-c2cnc3[nH]ccc3c2)c1: ≤ 10 µM
- COc1ccccc1Nc1cc2cnn(-c3csc(C(=O)NC4COC4)c3)c2cc1F: < 0.2 µM

## Input Please give measured IC50 of the following entry: c1ccc(COc2ccccc2Nc2c[nH]c3ncccc23)cc1
## Output ≤ 10 µM

## Input Please give measured IC50 of the following entry: O=C(Cc1ccc(F)c2ncccc12)Nc1scc(Br)c1-c1ncn[nH]1
## Output < 0.1 µM

## Input Please give measured IC50 of the following entry: COc1ccc(C(=O)c2c[nH]c3ncc(-c4cccc(C(N)=O)c4)cc23)c(F)c1
## Output ≤ 10 µM

## Input Please give measured IC50 of the following entry: CCCS(=O)(=O)Nc1cccc(C(=O)c2c[nH]c3ncc(-c4ccccc4)cc23)c1C
## Output ≤ 10 µM

## Input Please give measured IC50 of the following entry: O=C(Nc1cccc(F)c1)Nc1cccc(C(=O)c2c[nH]c3ncccc23)c1
## Output ≤ 10 µM

---

A compilation of published IC50 results with JNK3 (Homo sapiens).

Example results:
* O=C(Cc1cccc2ncc(F)cc12)Nc1scc(Br)c1-c1nc[nH]n1 | < 100 nM
* Cn1ccnc1NC(=O)c1cc(-n2ncc3nc(Nc4ccccc4Cl)ccc32)cs1 | 200 to 1000 nM
* CCCS(=O)(=O)Nc1ccc(F)c(C(=O)c2c[nH]c3ncc(OCCOC)cc23)c1F | ≤ 10000 nM
* O=C(CN1C(=O)CCc2ccccc21)Nc1ccsc1-c1cscn1 | 100 to 10000 nM
* CC1CCC(c2cnc3[nH]cc(-c4csc(C(=O)N5CCOCC5)n4)c3c2)CC1 (stereo not drawn) | 123 nM

# context switch: different compound, same IC50
## Input Give measured IC50 for COc1ccc(Nc2cnc3[nH]ccc3c2)cc1Cl (JNK3 (Homo sapiens)).
## Output ≤ 10000 nM

---

A compilation of published IC50 results with JNK3 (Homo sapiens, UniProt P53779).

Example results:
* FC(F)(F)c1csc(-c2c[nH]c3ncc([C@H]4CC[C@H](N5CCCOCC5)CC4)cc23)n1 | 513 nM
* Cn1cnc(-c2c(Cl)csc2NC(=O)CN2C(=O)CCc3ncccc32)n1 | < 100 nM
* O=C(Cc1cccc2cccnc12)Nc1scc(Br)c1-c1ncn[nH]1 | 100 to 10000 nM

## Input Give measured IC50 for CS(=O)(=O)Nc1ccc(F)c(C(=O)c2c[nH]c3ncc(-c4cccnc4)cc23)c1 (JNK3 (Homo sapiens, UniProt P53779)).
## Output ≤ 10000 nM

## Input Give measured IC50 for O=C(Cn1c(=O)ccc2cc(Br)ccc21)Nc1scc(Br)c1-c1nc[nH]n1 (JNK3 (Homo sapiens, UniProt P53779)).
## Output < 100 nM

---

A compilation of published IC50 results with JNK3 (Homo sapiens).

- NC(=O)c1cccc(-c2cnc3[nH]cc(C(=O)c4cccc(O)c4F)c3c2)c1: ≤ 10000 nM
- O=C(CN1C(=O)CCc2ccccc21)Nc1scc(Br)c1-c1ncn[nH]1: < 100 nM
- N#Cc1csc(NC(=O)CN2C(=O)CCc3ccccc32)c1-c1ncn[nH]1: < 100 nM
- COc1cccc(C(=O)NCc2ccc(S(=O)(=O)N3CCC(Nc4ccccc4[N+](=O)[O-])CC3)s2)c1: 190 nM
- Cn1cnc(-c2c(Cl)csc2NC(=O)Cn2c(=O)ccn3nccc23)n1: < 100 nM
- O=C(Cc1cccc2ncccc12)Nc1scc(Br)c1-c1ncn[nH]1: < 100 nM
- CS(=O)(=O)Nc1ccc2[nH]nc(-c3ccc4ccccc4c3)c2c1: 163 nM
- O=C(NC1CN(C2CC2)C1)c1cc(-n2ncc3cc(Oc4ccccc4Cl)ccc32)cs1: < 200 nM

## Input Please give measured IC50 of the following entry: CC(C)NC(=O)c1cc(-n2ncc3cc(Nc4ccccc4Cl)ncc32)cs1
## Output < 200 nM

## Input Please give measured IC50 of the following entry: COCCN(C)[C@H]1CC[C@H](c2cnc3[nH]cc(-c4cnn(C)c4)c3c2)CC1
## Output 288 nM

## Input Please give measured IC50 of the following entry: CN1CCN(C(=O)c2nc(-c3c[nH]c4ncc(C5CCCCC5)cc34)cs2)CC1
## Output 63 nM

---

A compilation of published IC50 results with JNK3 (Homo sapiens, UniProt P53779).

• O=C(Cn1c(=O)ccc2cc(C(F)(F)F)c(F)cc21)Nc1scc(Br)c1-c1ncn[nH]1 = < 0.1 µM
• O=C(Cc1cccc2cnccc12)Nc1ccsc1-c1nccs1 = 0.1 to 10 µM
• Cn1cc(-c2c[nH]c3ncc(C4C5CC6CC(C5)CC4C6)cc23)cn1 (stereo not shown) = 0.062 µM
• CN1CCN([C@H]2CC[C@@H](c3cnc4[nH]cc(-c5cnn(C(F)(F)F)c5)c4c3)CC2)CC1 = 0.178 µM
• Cc1nc2c(cnn2-c2csc(C(=O)NC3COC3)c2)cc1Nc1cccc(F)c1Cl = < 0.2 µM

## Input Give measured IC50 for CN1CCN(C(=O)c2nc(-c3c[nH]c4ncc(C5=CCC(C)(C)C=C5)cc34)cs2)CC1 (JNK3 (Homo sapiens, UniProt P53779)).
## Output 0.04 µM

## Input Give measured IC50 for Cn1cnc(NC(=O)c2cc(-n3ncc4nc(Nc5ccccc5Cl)ccc43)cs2)c1 (JNK3 (Homo sapiens, UniProt P53779)).
## Output < 0.2 µM

## Input Give measured IC50 for Cc1n[nH]c(-c2sccc2NC(=O)Cc2ccc3c(c2)OCCO3)n1 (JNK3 (Homo sapiens, UniProt P53779)).
## Output 0.1 to 10 µM

## Input Give measured IC50 for COc1ccc(CC(=O)Nc2ccsc2-c2nnc(C)o2)cc1 (JNK3 (Homo sapiens, UniProt P53779)).
## Output 0.1 to 10 µM

## Input Give measured IC50 for Clc1ccc(-c2cnc3[nH]ccc3c2)s1 (JNK3 (Homo sapiens, UniProt P53779)).
## Output ≤ 10 µM

## Input Give measured IC50 for Nc1ccc(F)c(C(=O)c2c[nH]c3ncc(-c4cccnc4)cc23)c1F (JNK3 (Homo sapiens, UniProt P53779)).
## Output ≤ 10 µM

---

A compilation of published pIC50 results with UniProt P53779.
pIC50: −log10 of the molar value.

Example results:
- Cc1n[nH]c(-c2c(C)csc2NC(=O)Cc2cccc3ncccc23)n1: > 7.00
- O=C(Cn1c(=O)ccn2nccc12)Nc1scc(Cl)c1-c1ncn[nH]1: > 7.00
- O=C(CNS(=O)(=O)c1ccc(CNC(=O)c2ccc(Cl)cc2)s1)NCCNc1ncc(C(F)(F)F)cc1Cl: 5.92
- Cn1cc(-c2c[nH]c3ncc([C@H]4CC[C@@H](N5CCOCC5)CC4)cc23)cn1: 7.22

## Input Give measured pIC50 for Cn1ccnc1-c1sccc1NC(=O)Cc1cccc2ccccc12 (UniProt P53779).
## Output < 5.00

## Input Give measured pIC50 for Cn1cc(-c2c[nH]c3ncc(CN4CCCCC4)cc23)cn1 (UniProt P53779).
## Output > 6.00
